# Tgt: T1, Peptide A (human PAR-2), C-terminal biotinylated (Human, C-terminal biotin via G4S linker)
# T1 construct: also called Peptide A C-Term
# Experiment Summary: SPR, peptide immobilized
Reported Endpoint: pKd
Lab note — pKd values are minus log10 of concentrations in M.

Prompt: What value of pKd has been recorded for this entry: H2M588N (antibody, V domains shown, chimeric: human variable, mouse constant domains) VH: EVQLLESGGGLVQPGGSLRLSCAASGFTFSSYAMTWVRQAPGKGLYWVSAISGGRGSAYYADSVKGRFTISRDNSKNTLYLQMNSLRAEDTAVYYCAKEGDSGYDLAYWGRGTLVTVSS VL: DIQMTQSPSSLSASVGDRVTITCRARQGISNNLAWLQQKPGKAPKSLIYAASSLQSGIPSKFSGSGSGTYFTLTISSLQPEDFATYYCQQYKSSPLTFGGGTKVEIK
Response: 9.08

Prompt: What value of pKd has been recorded for this entry: H4H584P (antibody, human IgG4, V domains shown, also called H1H584P variable regions) VH: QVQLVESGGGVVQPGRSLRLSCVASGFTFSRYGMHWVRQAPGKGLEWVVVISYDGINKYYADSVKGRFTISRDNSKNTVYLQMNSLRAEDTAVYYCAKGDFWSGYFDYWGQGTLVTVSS VL: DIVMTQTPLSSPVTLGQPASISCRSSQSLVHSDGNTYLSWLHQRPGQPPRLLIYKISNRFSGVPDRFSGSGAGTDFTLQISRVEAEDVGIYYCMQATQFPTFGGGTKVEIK
Response: 9.16

Prompt: What value of pKd has been recorded for this entry: H4H583P (antibody, human IgG4, V domains shown, also called H1H583P variable regions) VH: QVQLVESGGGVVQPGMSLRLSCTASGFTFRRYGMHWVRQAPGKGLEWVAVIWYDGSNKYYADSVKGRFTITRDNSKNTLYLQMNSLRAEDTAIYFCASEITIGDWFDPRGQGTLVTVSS VL: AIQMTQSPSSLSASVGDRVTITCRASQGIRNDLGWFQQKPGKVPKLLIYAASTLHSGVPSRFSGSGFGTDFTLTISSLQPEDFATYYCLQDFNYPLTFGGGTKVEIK
Response: 9.05

Prompt: What value of pKd has been recorded for this entry: H2M618N (antibody, V domains shown, chimeric: human variable, mouse constant domains) VH: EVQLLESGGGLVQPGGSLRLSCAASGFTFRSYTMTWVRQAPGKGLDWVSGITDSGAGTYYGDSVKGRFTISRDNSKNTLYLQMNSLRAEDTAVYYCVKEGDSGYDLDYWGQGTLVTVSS VL: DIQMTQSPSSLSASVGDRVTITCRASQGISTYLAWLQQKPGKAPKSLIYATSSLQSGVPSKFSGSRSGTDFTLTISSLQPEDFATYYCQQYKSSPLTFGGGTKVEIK
Response: 8.74

Prompt: What value of pKd has been recorded for this entry: H4H585P (antibody, human IgG4, V domains shown, also called H1H585P variable regions) VH: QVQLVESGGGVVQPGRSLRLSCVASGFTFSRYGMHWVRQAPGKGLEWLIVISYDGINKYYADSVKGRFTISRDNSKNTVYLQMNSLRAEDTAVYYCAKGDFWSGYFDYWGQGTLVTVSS VL: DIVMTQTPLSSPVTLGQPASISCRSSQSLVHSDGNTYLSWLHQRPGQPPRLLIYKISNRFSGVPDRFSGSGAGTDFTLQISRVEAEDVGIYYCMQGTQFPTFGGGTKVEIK
Response: 9.82
